test system: VDR:RXRa (NR concentration 270 nM, RXRa partner concentration 90 nM); assay: PBM binding z-score (relative to random genomic background probes); higher = stronger binding; sequences stand for … in GC…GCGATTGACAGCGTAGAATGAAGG
Returns true if the recorded PBM binding z-score is greater than or equal to 0.5, and false otherwise.

Query: Item "ATATGTAGGATAAGGGTCATTCAGGTTGGTTCGC" with PBM binding z-score of 0.5 or above?
Response: true

Query: Item "GCTGCTAGGTCAGGTTGGTCAGCTTACGGGTACG" with PBM binding z-score of 0.5 or above?
Response: true

Query: Item "CCTACTGAGCCATCAGGTCATTGATATCAACGTT" with PBM binding z-score of 0.5 or above?
Response: true

Query: Item "CCTCGGCGGACAGAAGGTCAGAGCTGTCCGCTTT" with PBM binding z-score of 0.5 or above?
Response: false

Query: Item "ACTCGGAGGACAAAGATCAGAGCTACGCCAGTGA" with PBM binding z-score of 0.5 or above?
Response: false

Query: Item "TCATATAGGTAATACAGGTGAAAGACGGCATCTA" with PBM binding z-score of 0.5 or above?
Response: true

Query: Item "CCGACTGGGGCAGAAAGGTTACTATACCATCCGG" with PBM binding z-score of 0.5 or above?
Response: true

Query: Item "GCGGCTAGGTCAACTGATGGTCAGCTAAAGCTCG" with PBM binding z-score of 0.5 or above?
Response: true

Query: Item "GCATATAGATAATACAAGGTGAAAGTCCGATTGT" with PBM binding z-score of 0.5 or above?
Response: false

Query: Item "CCTCGGAGGACAATAGGAGGTCAGAGCTGCCAGA" with PBM binding z-score of 0.5 or above?
Response: true

Query: Item "GCGACTGGGGCACCAGCAGGTTACCATAACTTAA" with PBM binding z-score of 0.5 or above?
Response: false

Query: Item "CCTTACGTGTCACTGACAGGTTATAGCATTTGGA" with PBM binding z-score of 0.5 or above?
Response: true
